# target: c-kit kinase (Homo sapiens, UniProt P10721)
# Construct: The c-kit (or kinase domain thereof) is an active kinase in AlphaScreen; poly-Histidine tag (in-house protein only) (cleaved yes); host or cells: E. coli BL21(DE3)RIL, co-expressed with PTP1B
# Sequence (P10721 26-976): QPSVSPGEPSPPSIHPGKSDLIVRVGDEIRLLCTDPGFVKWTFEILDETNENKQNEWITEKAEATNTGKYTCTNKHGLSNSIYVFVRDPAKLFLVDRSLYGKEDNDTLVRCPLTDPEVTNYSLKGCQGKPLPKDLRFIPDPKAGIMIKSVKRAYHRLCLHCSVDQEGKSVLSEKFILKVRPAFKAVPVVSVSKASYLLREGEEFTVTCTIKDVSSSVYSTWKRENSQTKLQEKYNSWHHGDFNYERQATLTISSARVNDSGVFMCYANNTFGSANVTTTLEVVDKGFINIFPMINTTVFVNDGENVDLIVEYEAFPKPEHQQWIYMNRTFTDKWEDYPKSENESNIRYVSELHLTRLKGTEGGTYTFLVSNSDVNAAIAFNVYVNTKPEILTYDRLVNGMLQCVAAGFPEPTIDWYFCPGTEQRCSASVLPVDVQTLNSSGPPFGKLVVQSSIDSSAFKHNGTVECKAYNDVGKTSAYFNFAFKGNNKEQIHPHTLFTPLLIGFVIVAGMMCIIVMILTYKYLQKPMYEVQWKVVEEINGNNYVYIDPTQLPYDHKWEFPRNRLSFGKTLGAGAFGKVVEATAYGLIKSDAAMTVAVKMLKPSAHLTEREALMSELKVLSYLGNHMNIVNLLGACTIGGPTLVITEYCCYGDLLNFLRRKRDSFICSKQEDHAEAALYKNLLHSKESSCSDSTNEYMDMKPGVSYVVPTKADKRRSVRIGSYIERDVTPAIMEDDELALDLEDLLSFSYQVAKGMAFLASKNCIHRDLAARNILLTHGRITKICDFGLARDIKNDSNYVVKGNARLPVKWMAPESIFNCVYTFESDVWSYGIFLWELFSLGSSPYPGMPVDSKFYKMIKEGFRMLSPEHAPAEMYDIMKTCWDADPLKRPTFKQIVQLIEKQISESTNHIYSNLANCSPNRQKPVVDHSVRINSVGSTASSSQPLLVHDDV
# test-details: c-Kit biochemical assay, AlphaScreen, 10 μM ATP
# assay-context: c-kit biochemical inhibitory activity; read-out: Biochemical activity (IC50 μM) Kit
Consider the following compounds; for each one, report its IC50.

Observe how each entry below is paired with its result.
> print(dat)
                           structure.smiles     obs.value
1  O=S(=O)(NCc1ccc(F)cc1)c1ccc(-c2ncnc3[nH]c(-c4ccc(F)cc4)cc23)c(F)c1  10 to 200 µM
2  Cc1cc2c(-c3ccc(NS(=O)(=O)c4cc(Cl)c(Cl)s4)cc3)ncnc2[nH]1    1 to 10 µM
3  COc1cc2ncnc(-c3ccc(S(=O)(=O)Nc4ccc(F)cc4)cc3F)c2cc1OCCCN1CCOCC1  10 to 200 µM

Quick request: IC50 for each listed item, please.
1. C[C@H](NC(=O)N1CCN(c2ncnc3[nH]c(-c4ccc(C#N)cc4)cc23)CC1)c1cccc(Cl)c1
2. N#Cc1ccc(-c2cc3c(N4CCN(C(=O)Nc5ccc(OC(F)(F)F)cc5)CC4)ncnc3[nH]2)cc1
3. Cc1cc2c(N3CCC(NS(=O)(=O)c4ccc(Cl)cc4)CC3)ncnc2[nH]1
4. CC1(C)CN(c2ncnc3cc(-c4ccc(F)cc4)sc23)CCN1
5. COc1ccc([C@H](C)NC(=O)N2CCN(c3ncnc4[nH]c(-c5ccc(F)cc5)cc34)C[C@H]2C)cc1
6. COc1cc2ncnc(-c3ccc(NS(=O)(=O)c4ccc(Cl)cc4)cc3F)c2cc1OCCCN1CCOCC1
7. CCc1ccc(NC(=O)NC2CCN(c3ncnc4[nH]ccc34)CC2)cc1

1. 1 to 10 µM
2. 1 to 10 µM
3. 0.0001 to 1 µM
4. 10 to 200 µM
5. 1 to 10 µM
6. 0.0001 to 1 µM
7. 1 to 10 µM
